- systemUnderTest: T1, LINGO-Fc (human, UniProt Q96FE5 40-538, limits assumed)
- T1 construct: not shown: Fc part
- T1 sequence: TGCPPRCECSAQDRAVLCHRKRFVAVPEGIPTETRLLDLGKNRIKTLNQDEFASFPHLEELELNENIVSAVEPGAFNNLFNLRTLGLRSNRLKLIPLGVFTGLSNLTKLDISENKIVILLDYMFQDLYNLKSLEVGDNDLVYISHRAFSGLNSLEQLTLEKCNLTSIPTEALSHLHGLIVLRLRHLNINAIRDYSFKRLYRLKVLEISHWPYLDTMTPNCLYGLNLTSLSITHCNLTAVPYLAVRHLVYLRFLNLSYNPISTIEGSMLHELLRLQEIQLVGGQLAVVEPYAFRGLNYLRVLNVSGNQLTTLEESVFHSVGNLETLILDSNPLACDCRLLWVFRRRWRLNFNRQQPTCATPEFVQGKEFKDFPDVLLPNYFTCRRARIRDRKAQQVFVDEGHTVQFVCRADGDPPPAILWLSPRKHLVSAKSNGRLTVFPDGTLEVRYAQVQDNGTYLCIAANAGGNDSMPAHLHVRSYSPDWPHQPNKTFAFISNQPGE
- protocolDescription: direct ELISA on LINGO-Fc; OD450 at saturation relative to Li33;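 further: binding to plate-coated LINGO-Fc read by OD450, with the value at maximal saturation divided by the corresponding Li33 value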
List of Plateau Ratio values.
Please provide the amount together with its unit, number first.

# binder, measuredValue
data = [
    ("Li33 variant W50L (SEQ ID NO:149) (antibody, V domains shown, unchanged chain from WT Li33) VH: EVQLLESGGGLVQPGGSLRLSCAASGFTFSIYPMFWVRQAPGKGLEWVSLIGPSGGITKYADSVKGRFTISRDNSKNTLYLQMNSLRAEDTATYYCAREGHNDWYFDLWGRGTLVTVSS VL: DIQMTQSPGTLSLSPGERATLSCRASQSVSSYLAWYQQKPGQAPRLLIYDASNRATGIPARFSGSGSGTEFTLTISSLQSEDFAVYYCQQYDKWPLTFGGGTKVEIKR", "1 ratio"),
]

Now look at this entry.
Recorded Plateau Ratio (binder Li33 variant W94Q (SEQ ID NO:170) (antibody, V domains shown, unchanged chain from WT Li33) VH: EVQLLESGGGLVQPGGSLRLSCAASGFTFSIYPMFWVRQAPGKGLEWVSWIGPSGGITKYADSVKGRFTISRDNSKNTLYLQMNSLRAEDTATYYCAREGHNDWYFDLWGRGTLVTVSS VL: DIQMTQSPGTLSLSPGERATLSCRASQSVSSYLAWYQQKPGQAPRLLIYDASNRATGIPARFSGSGSGTEFTLTISSLQSEDFAVYYCQQYDKQPLTFGGGTKVEIKR ): 1.05 ratio
